Hello, the source for this data is PubChem BioAssay AID1996, in case you need it.

Conditions: buffer; pH 7.4; 200.0 µM
measurementName: solubility kinetic (µg/mL)
Numeric answer only, unit µg/mL assumed.

Worked cases, solubility kinetic given:
1. O=C(NC1CCCCC1)c1cc(F)cc2c1OCOC2	28.9
2. CC[n+]1oc(-c2ccccc2)cc1C.F[B-](F)(F)F	37.4
3. CC1(C)C(c2cccs2)=[N+]([O-])C2(CCCCC2=O)N1O (stereo not given)	41.4

For reference, reported solubility kinetic for O=S(=O)(NCCc1ccccn1)c1ccc(-c2ccccn2)s1 stands at 30.6

Summary for this compound, Cc1cccc(C)c1OCc1cc(C(=O)NCC2CC2)no1 : solubility kinetic is 4.6

Lab note: measured solubility kinetic of Cc1ccc(S(=O)(=O)NCc2ccccc2)cc1 was 25.9

Entry Cc1ccccc1N=C1c2ccccc2C(=O)C1[N+](=O)[O-] (stereo not given) ; solubility kinetic = 31.7

Summary for this compound, CC1(C)C2([N+](=O)[O-])CN3CC1([N+](=O)[O-])CN(C2)C3c1ccc(O)c(O)c1 (stereo not given) : solubility kinetic is 3.5

Per the record, C=CCn1c(SCC(C)=O)nc2sc3c(c2c1=O)CCC3 has solubility kinetic of 4.6

Looking up COc1ccc(C2(CNC(=O)c3ccccc3)CCCC2)cc1OC , I found its solubility kinetic recorded as 8.2

In plain terms, Cc1ccc2nc(N3CCCCC3)c(C=O)c(=O)n2c1 has a documented solubility kinetic of 39.1

GET /value?item= Cc1ccccc1CC(=O)NC1CCCCCC1 &field=solubility kinetic returns 11.1

Query O=C(Nc1ccccc1N1CCOCC1)c1ccc2c(c1)OCCO2 yields solubility kinetic of 5.6
